Exercise: state measured Potency for each of the molecules provided.
- measured target: Beta-lactamase (Escherichia coli (strain K12)) (UniProt P00811)
- Sequence (P00811 whole entry, looked up): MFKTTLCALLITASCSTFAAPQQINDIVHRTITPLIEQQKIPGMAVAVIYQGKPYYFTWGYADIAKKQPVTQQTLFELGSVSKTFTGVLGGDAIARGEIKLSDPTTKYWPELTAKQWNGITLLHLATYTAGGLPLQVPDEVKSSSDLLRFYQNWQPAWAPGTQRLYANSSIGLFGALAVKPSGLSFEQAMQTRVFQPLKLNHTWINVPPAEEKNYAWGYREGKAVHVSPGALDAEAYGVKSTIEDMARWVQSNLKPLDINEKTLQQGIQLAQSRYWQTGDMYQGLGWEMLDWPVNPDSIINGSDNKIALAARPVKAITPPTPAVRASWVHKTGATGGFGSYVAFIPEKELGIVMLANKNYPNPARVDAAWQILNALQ
- method summary: Confirmation Concentration-Response Assay for Inhibitors of AmpC Beta-Lactamase (assay with detergent)
- condition notes: purified AmpC, nitrocefin absorbance 480 nm, 0.01% Triton
Active and inactive are the calls of the source.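 Rule for the calls: active = compound given an inhibitor call from its dose-response curve against AmpC beta-lactamase with detergent added; inactive = the rest.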

Each molecule below has a recorded value; state its Potency.
1. CCC(C)[C@@H](NC(=O)OC(C)(C)C)c1nnc(S(=O)(=O)Cc2cccc(C)c2)o1 (stereo not given in full)
2. CC(C)(C)OC(=O)N[C@@H](Cc1ccccc1)c1nnc(S(=O)(=O)Cc2ccccc2)o1

Data returned:
1. 10 µM (active)
2. 16 µM (active)

Each molecule below has a recorded value; state its Potency.
1. CC(C)C[C@H](N)c1nnc(S(=O)(=O)Cc2cccc(F)c2)o1
2. COC(=O)CS(=O)(=O)c1nnc([C@H](Cc2ccccc2)NC(=O)OC(C)(C)C)o1
3. Cc1ccccc1CS(=O)(=O)c1nnc([C@H](CC(C)C)NC(=O)OC(C)(C)C)o1

Data returned:
8.6 µM (active)
9.4 µM (active)
11 µM (active)
